Experiment: Ratio of biodistribution in tumor to blood in 9L-glioma bearing rat at 1 to 3 mCi, iv after 5 mins
Format: ADME, organism-based
Conditions: tumor and blood (tumor-to-blood ratio)
measured-parameter: Kp at 5 min

# compound, reading
data = [
    ("C[N+]1(C)CCOC(O)(c2ccc(-c3ccc(C4(O)C[N+](C)([11CH3])CCO4)cc3)cc2)C1.O=S(=O)([O-])C(F)(F)F.[I-] (stereo unspecified)", 0.466),
]
